Source: ChEMBL document CHEMBL4387724

- Tested on: HeLa
- procedureSummary: Cytotoxicity against human HeLa cells assessed as reduction in cell growth at 3 uM incubated for 72 hrs by MTT assay relative to control
- Format: functional
- conditionDetails: read-out: GI
The following compounds are shown together with reported inhibition of growth at 3 µM values.
In your response, the unit should come after the numeric value.

See these solved cases before continuing.
N/C(=N\NC(=S)N1CCCCCC1)c1ccccn1 36.6%
Cc1cccc(/C(N)=N/NC(=S)N2CCCCC2)n1 68.9%
Cc1cccc(/C(N)=N/NC(=S)N2CCCC2)n1 56.8%
N/C(=N\NC(=S)N1CCOCC1)c1ccc(F)cn1 59.7%
Cc1ccnc(/C(N)=N/NC(=S)N2CCCCC2)c1 23.9%
N/C(=N\NC(=S)N1CCN(c2ccccn2)CC1)c1ccc(F)cn1 77.3%
Cc1cccc(/C(N)=N/NC(=S)N2CCCCCC2)n1 63.6%
N/C(=N\NC(=S)N1CCCC1)c1ccc(F)cn1 77.7%
Cc1cccc(/C(N)=N/NC(=S)N2CCSCC2)n1 54.6%
N/C(=N\NC(=S)N1CCSCC1)c1ccc(F)cn1 62.9%

// query For the compound Cc1cccc(/C(N)=N/NC(=S)N2CCOCC2)n1 , give its measured inhibition of growth at 3 µM value.
// result 65.7%

// query Using the record for Cc1ccnc(/C(N)=N/NC(=S)N2CCCCCC2)c1 , state its measured inhibition of growth at 3 µM.
// result 41.9%

// query Quickly give me recorded inhibition of growth at 3 µM for N/C(=N\NC(=S)N1CCSCC1)c1ccccn1
// result 39.7%

// query For Cc1cccc(/C(N)=N/NC(=S)N2CCN(c3ccccn3)CC2)n1 , write its inhibition of growth at 3 µM.
// result 72.7%
